Listed next: entries and their corresponding GI50.
System: U87 glioblastoma cells
Experiment: MTT antiproliferative assay, U87
Format: cell-based, human
Conditions: Homo sapiens; 48 h treatment, MTT, ± SD; read-out: GI50 in vitro, U87
# number then unit; no other words

The following compounds have reported results that may help.
INSERT INTO results (compound, reported_result) VALUES
  ('Cc1ccc(C(C(=O)NO)c2c(-c3ccc4ccccc4c3)[nH]c3ccccc23)cc1C (stereo not drawn)', '6.7 µM'),
  ('CCCCn1c(-c2ccc3ccccc3c2)c(C(C(=O)NO)c2ccccc2)c2ccccc21 (stereo not drawn)', '6.7 µM'),
  ('CN(C)c1ccc(C(C(=O)NO)c2c(-c3ccc4ccccc4c3)[nH]c3ccccc23)cc1 (stereo not drawn)', '21.3 µM');

Specify measured GI50 for O=C(NO)C(c1ccccc1)c1c(-c2ccc3ccccc3c2)[nH]c2ccccc12 (stereo not drawn) . 9.5 µM

Specify measured GI50 for O=C(NO)C(c1ccccc1)c1c(-c2ccc3ccccc3c2)n(Cc2ccccc2)c2ccccc12 (stereo not drawn) . 9.1 µM

Specify measured GI50 for CC(C)c1ccc(C(C(=O)NO)c2c(-c3ccc4ccccc4c3)[nH]c3ccccc23)cc1 (stereo not drawn) . 5 µM

* * *

Test system: MCF-7 breast adenocarcinoma cells
Assay: MTT antiproliferative assay, MCF-7
Format: cell-based
Settings: Homo sapiens, MCF7, Table 2, 48 h treatment, ± SD, read-out: cell viability GI50, MCF7
Listed next: entries and their corresponding log10 of GI50.
All values: base-10 log of GI50 in µM.

The following compounds have reported results that may help.
INSERT INTO results (compound, reported_result) VALUES
  ('O=C(NO)C(c1ccc(Cl)c(Cl)c1)c1c(-c2ccc3ccccc3c2)[nH]c2ccccc12 (stereo not shown)', 1.09),
  ('Cc1ccc(C(C(=O)NO)c2c(-c3ccc4ccccc4c3)[nH]c3ccccc23)cc1 (stereo not shown)', 0.69),
  ('Cc1cccc(C(C(=O)NO)c2c(-c3ccc4ccccc4c3)[nH]c3ccccc23)c1 (stereo not shown)', 0.87);

Output reported log10 of GI50 of the compound O=C(NO)C(c1ccc(F)cc1)c1c(-c2ccc3ccccc3c2)[nH]c2ccccc12 (stereo not shown) on MCF-7 breast adenocarcinoma cells. 0.80

Output reported log10 of GI50 of the compound CCCCn1c(-c2ccc3ccccc3c2)c(C(C(=O)NO)c2ccc(C(C)C)cc2)c2ccccc21 (stereo not shown) on MCF-7 breast adenocarcinoma cells. 0.89

Output reported log10 of GI50 of the compound CCCCn1c(-c2ccc3ccccc3c2)c(C(C(=O)NO)c2ccccc2)c2ccccc21 (stereo not shown) on MCF-7 breast adenocarcinoma cells. 0.89

Output reported log10 of GI50 of the compound O=C(NO)C(c1ccccc1Cl)c1c(-c2ccc3ccccc3c2)[nH]c2ccccc12 (stereo not shown) on MCF-7 breast adenocarcinoma cells. 0.69

Output reported log10 of GI50 of the compound CC(C)c1ccc(C(C(=O)NO)c2c(-c3ccc4ccccc4c3)[nH]c3ccccc23)cc1 (stereo not shown) on MCF-7 breast adenocarcinoma cells. 0.15

Output reported log10 of GI50 of the compound O=C(NO)C(c1cccc(F)c1)c1c(-c2ccc3ccccc3c2)[nH]c2ccccc12 (stereo not shown) on MCF-7 breast adenocarcinoma cells. 1.31

Output reported log10 of GI50 of the compound O=C(NO)C(c1ccccc1Br)c1c(-c2ccc3ccccc3c2)[nH]c2ccccc12 (stereo not shown) on MCF-7 breast adenocarcinoma cells. 0.43

* * *

System: MCF-7 breast adenocarcinoma cells
Experiment: MTT antiproliferative assay, MCF-7
Assay type: cell-based
Conditions: Homo sapiens, MCF7, Table 1, 48 h treatment, ± SD, read-out: cell viability GI50, MCF7
Listed next: entries and their corresponding GI50.
Output spec: scalar in µM, unitless text.

The following compounds have reported results that may help.
INSERT INTO measurements (compound, units, reported_result) VALUES
  ('O=C(NO)C(c1ccccc1)c1c(-c2cccc3ccccc23)[nH]c2ccccc12 (centres unmarked)', 'µM', 32),
  ('O=C(NO)C(c1ccccc1)c1c(-c2ccccc2)[nH]c2ccccc12 (centres unmarked)', 'µM', 31),
  ('Cn1c(-c2ccc3ccccc3c2)c(C(C(=O)NO)c2cccc(F)c2)c2ccccc21 (centres unmarked)', 'µM', 25.7);

Turning now to a further compound:
Specify measured GI50 for O=C(NO)C(c1ccccc1)c1c(-c2ccc3ccccc3c2)[nH]c2ccccc12 (centres unmarked) . 3.4

* * *

Test system: HeLa cervical adenocarcinoma cells
Experiment: MTT antiproliferative assay, HeLa
Assay type: cell-based
Settings: Homo sapiens, Table 1, 48 h treatment, ± SD, read-out: cell viability GI50, HeLa
Listed next: entries and their corresponding GI50.

INSERT INTO results (molecule, reported_result) VALUES
  ('Cc1[nH]c2ccccc2c1C(C(=O)NO)c1ccccc1 (stereo not drawn) [Compound 3aada]', '> 50 µM');

Turning now to a further molecule:
Specify measured GI50 for O=C(NO)C(c1ccccc1)c1c(-c2ccccc2[N+](=O)[O-])[nH]c2ccccc12 (stereo not drawn) [Compound 3aaba] . > 50 µM
